System Name: Bile acid receptor (Homo sapiens) (UniProt Q96RI1)
Sequence (Q96RI1 whole entry, looked up): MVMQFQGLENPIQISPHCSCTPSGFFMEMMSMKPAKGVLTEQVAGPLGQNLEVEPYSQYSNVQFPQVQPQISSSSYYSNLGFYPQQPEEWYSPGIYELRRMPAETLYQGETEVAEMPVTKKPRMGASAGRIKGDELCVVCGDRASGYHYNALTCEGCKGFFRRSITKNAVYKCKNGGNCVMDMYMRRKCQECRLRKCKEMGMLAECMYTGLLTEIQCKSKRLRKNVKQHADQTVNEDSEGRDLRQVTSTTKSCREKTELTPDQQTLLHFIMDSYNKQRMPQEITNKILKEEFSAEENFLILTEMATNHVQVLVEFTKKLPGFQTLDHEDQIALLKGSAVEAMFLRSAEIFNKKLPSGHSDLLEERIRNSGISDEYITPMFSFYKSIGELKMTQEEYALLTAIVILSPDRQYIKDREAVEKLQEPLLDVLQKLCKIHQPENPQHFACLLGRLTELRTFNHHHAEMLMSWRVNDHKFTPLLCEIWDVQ
Protocol Details: ATG_IR1_CIS: Attagene CIS-FACTORIAL HepG2 Assay for human Nuclear Receptor Subfamily 1 Group H Member 4 (NR1H4), IR1 submotif (AID 2282946)
Condition Parameters: IR1 reporter transcription, actives raise or lower the signal
Activity calls are given as the source filed them. Rule for the calls: active = hit-call score of the fitted dose curve at least 0.9, where 1 is the maximum; inactive = score below 0.9.
Pick one: y for active, n for inactive

Completed entries (count: 10):
Compound: CCCCCc1ccc(Cl)cc1
Cat: n

Compound: O=C1CCCCCCCCCCCCCCCO1
Cat: n

Compound: C=CCCCCCCCCC(=O)OCCCC
Cat: n

Compound: C=C(C)C(=O)OCC(C)C
Cat: n

Compound: O=S(=O)(O)CC(O)CCl (configuration not stated)
Cat: n

Compound: C=C(C)CCO
Cat: n

Compound: NC(=O)c1ccccc1O
Cat: n

Compound: CC(C)c1ccc2c(C(C)C)cc(C(C)C)c(S(=O)(=O)O)c2c1
Cat: n

Compound: O=CC1CC1
Cat: n

Compound: CCOC(=O)[C@H](C)O
Cat: n

Please let me know the test result on file for `CCCCCCCCCCCCCCCC[N+](C)(C)CC` . n

Same question, `O=C(O)Cc1c(Cl)ccc(Cl)c1Cl` this time n

Same question, C=CC(=O)OCCOC1C2CCC1C1CC=CC12 (configuration not stated) this time n

Same question, `Cc1cccc(N)n1` this time n

Same question, CCC(Cc1ccccc1)(C(=O)c1ccc(N2CCOCC2)cc1)N(C)C (configuration not stated) this time n

Same question, NC(=O)C1CO1 (configuration not stated) this time n

Same question, `CCCCCCCCCCc1ccccc1` this time n

Same question, `C(=CC=Nc1ccccc1)C=CNc1ccccc1` this time n

Same question, `COCCCOCCCOC` this time n

Same question, CC(=O)OCC(C)OC(C)=O (configuration not stated) this time n

Same question, `COC(=O)c1sccc1S(N)(=O)=O` this time n

Same question, `Nc1nc2ccccc2[nH]1` this time n

Same question, `O=P(O)(O)Oc1ccccc1` this time n

Same question, `Nc1ccc(N)c(Cl)c1` this time n

Same question, `CC(C)(C)c1ccc(-c2ccc(C(C)(C)C)cc2)cc1` this time n

Same question, `CC[C@H]1OC(=O)[C@H](C)[C@@H](O[C@H]2C[C@@](C)(OC)[C@@H](O)[C@H](C)O2)[C@H](C)[C@@H](O[C@@H]2O[C@H](C)C[C@H](N(C)C)[C@H]2O)[C@](C)(O)C[C@@H](C)C(=NOCOCCOC)[C@H](C)[C@@H](O)[C@]1(C)O` this time n

Same question, COCC(C)N (configuration not stated) this time n

Same question, CC(C)=CCCC(C)C=O (configuration not stated) this time n

* * *

System Name: Glucocorticoid receptor (Homo sapiens) (UniProt P04150)
Sequence (P04150 whole entry, looked up): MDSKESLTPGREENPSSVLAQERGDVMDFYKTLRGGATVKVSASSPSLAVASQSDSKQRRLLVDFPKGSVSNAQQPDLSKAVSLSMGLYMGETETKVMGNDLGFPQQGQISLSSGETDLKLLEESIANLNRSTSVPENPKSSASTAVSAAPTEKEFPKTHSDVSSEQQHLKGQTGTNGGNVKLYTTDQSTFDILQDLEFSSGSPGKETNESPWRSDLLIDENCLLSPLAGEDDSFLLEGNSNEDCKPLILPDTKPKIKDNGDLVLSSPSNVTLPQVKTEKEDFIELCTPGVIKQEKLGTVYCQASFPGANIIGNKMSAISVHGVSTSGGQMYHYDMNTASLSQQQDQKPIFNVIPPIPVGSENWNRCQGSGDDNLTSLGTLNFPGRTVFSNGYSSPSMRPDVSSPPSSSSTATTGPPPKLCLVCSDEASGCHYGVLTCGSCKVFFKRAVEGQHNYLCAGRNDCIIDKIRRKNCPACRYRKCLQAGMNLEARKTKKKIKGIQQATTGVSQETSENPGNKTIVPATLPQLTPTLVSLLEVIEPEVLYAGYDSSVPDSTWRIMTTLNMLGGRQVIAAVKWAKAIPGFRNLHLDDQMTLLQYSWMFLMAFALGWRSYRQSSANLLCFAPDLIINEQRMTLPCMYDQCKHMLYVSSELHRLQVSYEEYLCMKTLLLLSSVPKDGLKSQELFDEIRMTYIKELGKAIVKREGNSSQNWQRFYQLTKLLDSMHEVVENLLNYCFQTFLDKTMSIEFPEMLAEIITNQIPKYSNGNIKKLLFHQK
Protocol Details: ATG_GR_TRANS: Attagene TRANS-FACTORIAL HepG2 Assay for human Glucocorticoid Receptor (GR) (AID 2282978);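 note: activators score as hits since higher reporter transcript over DMSO is fitted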
Condition Parameters: HepG2 Attagene TRANS GR reporter, mRNA transcription
Records with an inconclusive call do not appear. The source made the active and inactive calls. How the source made its calls: active means hit-call score of the fitted dose curve at least 0.9, where 1 is the maximum; inconclusive means response in the unintended direction; inactive means score below 0.9.
Pick one: active, inactive

Completed entries (count: 3):
Molecule Smiles: CCCCCCCC/C=C\CCCCCCCC(=O)O
Cat: inactive

Molecule Smiles: O=C(Nc1cccc(C(F)(F)F)c1)c1cc(Br)cc(Br)c1O
Cat: inactive

Molecule Smiles: CC(=O)CC(N)=O
Cat: inactive

Please let me know the test result on file for `CC(C)CCCCCOC(=O)CCS` . inactive

Same question, `CC(=O)OCCC1CCCCC1` this time inactive

* * *

Read-out: Matrix Metallopeptidase 1 (MMP1), MMP1 (gene 4312)
Protocol Details: BSK_hDFCGF_MMP1: BioMAP Diversity Plus: hDFCGF Assay for Matrix Metallopeptidase 1 (MMP1) Biomarker Activity (AID 2283064)
Condition Parameters: primary human foreskin fibroblasts; actives raise or lower the signal
Activity calls are given as the source filed them. Rule for the calls: active = hit-call score of the fitted dose curve at least 0.9, where 1 is the maximum; inactive = score below 0.9.
Parameter Measured: AC50

Examples from the recorded data:
Compound: CC1OC1C1CCC2(C)OC2C1 (stereo unspecified)
AC50: inactive

Compound: CC(C)(c1cc(Br)c(OCCO)c(Br)c1)c1cc(Br)c(OCCO)c(Br)c1
AC50: inactive

Compound: CCCCC/C=C\C/C=C\CCCCCCCC(=O)OC
AC50: 33.4 µM (active)

Compound: O=C1CCCN1CCO
AC50: inactive

Compound: C#CC1(O)CC[C@H]2[C@@H]3CCC4=CCCC[C@@H]4[C@H]3CC[C@@]21C (stereo partly specified)
AC50: 37.5 µM (active)

Next compound, AC50 to be filled in.
Name the reported AC50 value associated with the compound `C=CCOc1c(Br)cc(Br)cc1Br` 30.3 µM (active)

* * *

System Name: Signal transducer and activator of transcription 3 (Homo sapiens) (UniProt P40763)
Sequence (P40763 whole entry, looked up): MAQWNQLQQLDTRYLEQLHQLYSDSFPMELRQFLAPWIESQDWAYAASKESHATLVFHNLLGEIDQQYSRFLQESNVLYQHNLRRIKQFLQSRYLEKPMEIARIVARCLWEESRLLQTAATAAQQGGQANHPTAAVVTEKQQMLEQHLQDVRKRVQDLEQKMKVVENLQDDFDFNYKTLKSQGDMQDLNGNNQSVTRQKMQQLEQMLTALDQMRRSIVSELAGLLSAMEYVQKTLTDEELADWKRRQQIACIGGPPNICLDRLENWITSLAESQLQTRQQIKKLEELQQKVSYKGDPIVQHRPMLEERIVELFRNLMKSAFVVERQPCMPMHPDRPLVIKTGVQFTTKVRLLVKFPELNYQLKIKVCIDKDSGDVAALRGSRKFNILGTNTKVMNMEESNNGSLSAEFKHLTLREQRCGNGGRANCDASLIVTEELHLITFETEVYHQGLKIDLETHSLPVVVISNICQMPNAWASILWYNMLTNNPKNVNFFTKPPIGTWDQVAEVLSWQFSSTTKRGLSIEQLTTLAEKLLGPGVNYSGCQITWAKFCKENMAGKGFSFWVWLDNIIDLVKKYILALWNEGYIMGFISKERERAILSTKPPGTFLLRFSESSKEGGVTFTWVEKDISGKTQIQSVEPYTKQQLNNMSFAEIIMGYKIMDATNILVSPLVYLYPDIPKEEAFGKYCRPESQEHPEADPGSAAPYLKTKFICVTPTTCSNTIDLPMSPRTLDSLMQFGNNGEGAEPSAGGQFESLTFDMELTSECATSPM
Protocol Details: ATG_STAT3_CIS: Attagene CIS-FACTORIAL HepG2 Assay for human Signal Transducer and Activator of Transcription 3 (STAT3) (AID 2282963)
Condition Parameters: HepG2, Attagene cis-factorial STAT3 reporter transcription; actives raise or lower the signal
Method: ATG_CIS is a cell-based, multiplexed-readout assay that uses HepG2, a human liver cell line, with measurements taken at 24 hours after chemical dosing in a 24-well plate.ATG_STAT3_CIS is one of 52 assay component(s) measured or calculated from the ATG_CIS assay. […] This assay endpoint, ATG_STAT3_CIS, was analyzed with bidirectional fitting relative to DMSO as the negative control and baseline of activity. […]
The source made the active and inactive calls. Rule for the calls: active = hit-call score of the fitted dose curve at least 0.9, where 1 is the maximum; inactive = score below 0.9.
Pick one: active, inactive

Compound: O=C(O)CCCC[C@@H]1SC[C@@H]2NC(=O)N[C@@H]21
Cat: inactive
--
Compound: CCOCC(=O)O
Cat: inactive
--
Compound: C=CC(=O)NC(C)(C)CS(=O)(=O)O
Cat: inactive
--
Compound: CC(C)(c1cc(Br)c(OCCO)c(Br)c1)c1cc(Br)c(OCCO)c(Br)c1
Cat: inactive

Would you kindly look at the next entry?
Please let me know the test result on file for CCCCCCOC(=O)C(C)CC (stereo unspecified) . inactive

* * *

System Name: Heat shock factor protein 1 (Homo sapiens)
Protocol Details: ATG_HSE_CIS: Attagene CIS-FACTORIAL HepG2 Assay for human Heat Shock Transcription Factor 1 (HSE) (AID 2282953)
Condition Parameters: HepG2 HSE cis-reporter, Attagene RNA transcription; actives raise or lower the signal
The source made the active and inactive calls. The calls were made as follows: active = hit-call score of the fitted dose curve at least 0.9, where 1 is the maximum; inactive = score below 0.9.
Pick one: active, inactive

Compound: O=S1(=O)OC(c2ccc(O)cc2)(c2ccc(O)cc2)c2ccccc21
Cat: inactive
//
Compound: CC1=NC(C)OC1C (stereo unspecified)
Cat: active
//
Compound: O=C1CCCC1
Cat: inactive

Please let me know the test result on file for `O=C1C=CC(=O)O1` . inactive

Same question, `COC(=O)c1ccccc1OC` this time inactive

Same question, `O=c1cc(-c2ccccc2)oc2ccccc12` this time active

* * *

Read-out: E-selectin (Homo sapiens) (UniProt P16581)
Sequence (P16581 whole entry, looked up): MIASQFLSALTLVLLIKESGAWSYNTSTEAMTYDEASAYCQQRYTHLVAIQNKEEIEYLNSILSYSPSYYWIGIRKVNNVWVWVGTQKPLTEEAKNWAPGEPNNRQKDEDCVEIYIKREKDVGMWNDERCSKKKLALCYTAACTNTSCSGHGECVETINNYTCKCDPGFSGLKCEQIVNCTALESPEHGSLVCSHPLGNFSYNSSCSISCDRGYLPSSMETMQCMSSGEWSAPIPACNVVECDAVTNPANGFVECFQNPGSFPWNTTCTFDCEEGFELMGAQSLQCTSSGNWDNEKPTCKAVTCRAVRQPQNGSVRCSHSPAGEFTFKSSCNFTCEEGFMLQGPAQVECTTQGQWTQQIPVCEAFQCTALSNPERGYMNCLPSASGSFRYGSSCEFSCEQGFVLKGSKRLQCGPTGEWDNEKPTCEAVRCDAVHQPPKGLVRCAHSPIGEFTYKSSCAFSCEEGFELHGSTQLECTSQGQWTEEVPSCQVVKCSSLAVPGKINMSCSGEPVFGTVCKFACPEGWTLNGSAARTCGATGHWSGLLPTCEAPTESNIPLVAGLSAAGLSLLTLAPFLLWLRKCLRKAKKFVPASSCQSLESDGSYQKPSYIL
Protocol Details: BSK_SAg_Eselectin: BioMAP Diversity Plus: SAg Assay for Eselectin Biomarker Activity (AID 2283091)
Condition Parameters: primary human HUVEC with PBMC; actives raise or lower the signal
The source made the active and inactive calls. The calls were made as follows: active = hit-call score of the fitted dose curve at least 0.9, where 1 is the maximum; inactive = score below 0.9.
Parameter Measured: AC50

Examples from the recorded data:
Compound: CCCCC/C=C\C/C=C\CCCCCCCC(=O)OC
AC50: 30.9 µM (active)
--
Compound: CO[Si](OC)(OC)c1ccccc1
AC50: inactive
--
Compound: c1ccc2c(c1)ccc1cc3c(ccc4ccccc43)cc12
AC50: inactive
--
Compound: COc1ccc2nc(N)sc2c1
AC50: inactive
--
Compound: O=c1c2ccccc2oc2ccccc12
AC50: inactive
--
Compound: C/C=C\C/C=C/CCCCCCCCOC(C)=O
AC50: 29.5 µM (active)
--
Compound: N#[N+]c1ccc2c(S(=O)(=O)[O-])cccc2c1O
AC50: inactive
--
Compound: O=C(Nc1ccccc1SSc1ccccc1NC(=O)c1ccccc1)c1ccccc1
AC50: inactive

Name the reported AC50 value associated with the compound `COCc1c(C(C)C)nc(C(C)C)c(/C=C/[C@@H](O)C[C@@H](O)CC(=O)O)c1-c1ccc(F)cc1` 0.0215 µM (active)

Same question, `c1ccc(-c2ccccn2)nc1` this time inactive

Same question, `CC(C)C(=O)C(C)C` this time inactive

Same question, `CCCCCCCCc1ccc(Nc2ccc(CCCCCCCC)cc2)cc1` this time 0.0731 µM (active)

Same question, C=CC(=O)OCC(Br)CBr (centres undefined) this time 8.13 µM (active)

Same question, `c1ccc2c(c1)ccc1ncccc12` this time inactive

* * *

Protocol Details: ATG_AP_1_CIS: Attagene CIS-FACTORIAL HepG2 Assay for human Activator Protein 1 (AP-1) (AID 2282931)
Condition Parameters: HepG2 Attagene cis-factorial AP-1 reporter mRNA; actives raise or lower the signal
Active and inactive are the calls of the source. How the source made its calls: active means hit-call score of the fitted dose curve at least 0.9, where 1 is the maximum; inactive means score below 0.9.
Parameter Measured: AC50

Examples from the recorded data:
Molecule: COC(=O)c1sccc1S(N)(=O)=O
AC50: inactive

Molecule: CCCCCCCC/C=C\CCCCCCCC(=O)O
AC50: 137 µM (active)

Molecule: CC(=O)NS(=O)(=O)c1ccc(N)cc1
AC50: inactive

Molecule: Cc1cc(O)c(Cl)c(C)c1Cl
AC50: inactive

Name the reported AC50 value associated with the molecule `O=[N+]([O-])c1ccc(CO)cc1` inactive

Same question, `CCN(CC)c1ccc(C(=O)c2ccccc2C(=O)O)c(O)c1` this time inactive

Same question, `CCCCC/C=C\CCC=O` this time inactive

Same question, CCC(C)(C)C1CCCCC1OC(C)=O (centres undefined) this time 158 µM (active)

Same question, `O=Cc1ccc(CO)o1` this time inactive
